tested on: Trypanosoma brucei Lister 427 VSG221 with APOL1 G1 recombinant protein; experiment: APOL1 G1 trypanosome cell rescue assay (Example B5); type: cell-based; conditions: Trypanosoma brucei, 20 h, read-out: APOL1 G1 Trypanosome Rescue EC50, Trypanosoma brucei Lister 427 VSG221 with APOL1 G1 recombinant protein, 20 hours, CellTiter-Glo; geometric mean of at least 2 assay runs; † = single assay run
For each entry below, report its EC50 value.
Kindly answer with a numeric value in nM, unit omitted.

Q: Write down EC50 measured for item `CC(C)N1C(=O)Cc2cc(OCCN3CCC4(CC3)C(=O)Nc3ccc(Cl)cc34)ccc21`
Result: 118

Q: Write down EC50 measured for item O=C1Nc2ccc(Cl)cc2C12CCN(CCOc1ccc(C3CCCS3(=O)=O)cc1)CC2 (single isomer, unassigned)
Result: 177

Q: Write down EC50 measured for item `CS(=O)(=O)C1(c2ncc(OCCN3CCC4(CC3)C(=O)Nc3ccc(Cl)cc34)cn2)CC1`
Result: 171

Q: Write down EC50 measured for item `CS(=O)(=O)Nc1ccc(OCCN2CCC3(CC2)C(=O)Nc2ccc(Cl)cc23)cc1`
Result: 430
